- SYSTEM: WRN (BV08), human Werner helicase (Uniprot Q14191, amino acids 517-1235 with L1074F point mutation) (Homo sapiens (Human), UniProt Q14191, L1074F)
- Sequence (Q14191 other isoform, or with tags, fused parts or gaps L1074F (already in the parent)): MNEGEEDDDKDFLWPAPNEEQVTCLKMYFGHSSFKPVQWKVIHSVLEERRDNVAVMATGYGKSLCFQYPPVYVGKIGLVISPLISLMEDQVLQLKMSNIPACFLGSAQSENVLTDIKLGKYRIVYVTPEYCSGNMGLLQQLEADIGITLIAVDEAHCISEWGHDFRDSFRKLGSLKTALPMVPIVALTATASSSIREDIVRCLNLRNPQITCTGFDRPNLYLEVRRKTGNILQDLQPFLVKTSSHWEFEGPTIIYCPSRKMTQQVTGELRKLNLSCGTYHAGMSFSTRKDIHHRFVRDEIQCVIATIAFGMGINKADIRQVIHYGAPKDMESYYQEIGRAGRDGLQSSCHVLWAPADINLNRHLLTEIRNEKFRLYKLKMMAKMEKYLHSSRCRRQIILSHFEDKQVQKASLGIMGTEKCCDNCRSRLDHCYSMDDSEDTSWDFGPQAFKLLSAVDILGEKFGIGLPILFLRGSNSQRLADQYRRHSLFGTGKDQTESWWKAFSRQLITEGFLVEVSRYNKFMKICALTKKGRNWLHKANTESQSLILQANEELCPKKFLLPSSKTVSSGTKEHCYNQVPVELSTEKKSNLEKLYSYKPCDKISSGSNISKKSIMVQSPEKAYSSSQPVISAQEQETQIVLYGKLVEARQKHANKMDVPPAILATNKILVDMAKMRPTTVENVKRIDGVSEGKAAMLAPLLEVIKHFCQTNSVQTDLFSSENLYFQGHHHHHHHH
- PROTOCOL: WRN (BV08) ADP-Glo assay
- CONDITION: class symbols A-E, read-out: ADP-Glo_hWRN_IC50

- COMPOUND: "CCc1c(N2CCN(C(=O)c3ncnc(C)c3O)CC2)c(=O)c2nc(N3CCCC3)cnc2n1CC(=O)Nc1ccc(C(F)(F)F)cc1Cl"
  IC50: "5 to 50 nM"
- COMPOUND: "CCc1c(N2CCN(C(=O)c3ncc4c(c3O)CCO4)CC2)c(=O)c2nc(N(C)C3CC3)cnc2n1CC(=O)Nc1ccc(C(F)(F)F)cc1Cl"
  IC50: "≤ 5 nM"
- COMPOUND: "CCc1c(N2CCN(C(=O)c3c(OC)ncc(C)c3O)C[C@@H]2C)c(=O)c2nc(C3CC3)cnc2n1CC(=O)Nc1ccc(C(F)(F)F)cc1Cl"
  IC50: "5 to 50 nM"
- COMPOUND: "CCc1c(N2CCN(C(=O)c3ncnc(C)c3O)[C@H]3CC[C@@H]32)c(=O)c2nc(NC)cnc2n1CC(=O)Nc1ccc(C(F)(F)F)cc1Cl [I-227]"
  IC50: "≤ 5 nM"
- COMPOUND: "CCc1c(N2CCN(C(=O)c3ncnc(C)c3O)CC2)c(=O)c2nc3cc(C)oc3nc2n1CC(=O)Nc1ccc(C(F)(F)F)cc1Cl"
  IC50: "5 to 50 nM"
- COMPOUND: "CCc1c(N2CCN(C(=O)c3ncnc(C)c3O)CC2)c(=O)c2nc(N(C)C3(C)CC3)cnc2n1CC(=O)Nc1ccc(C(F)(F)F)cc1Cl"
  IC50: "5 to 50 nM"

Values compiled from patent US20250034136A1.
